Task for the reader: assign each of the following sequences its reported shrunken log2 fold change.
- System: Escherichia coli TOP10
- test.details: shrunken log2 fold change of peptide-encoding DNA abundance (4.5 h post-induction vs induction); higher = less antimicrobial activity (less host growth inhibition)
- cond: time post-induction: 4.5 h; library: site-saturation at positions 5, 18, 19, 20
Field format: numeric only.

Lookup result for RRIRVRPPRLPRPRPRPMSRPRP ; measured shrunken log2 fold change: 0.0217

Lookup result for RRIRFRPPRLPRPRPRPGWGPRP ; measured shrunken log2 fold change: 0.076

Lookup result for RRIRMRPPRLPRPRPRPWTRPRP ; measured shrunken log2 fold change: -0.00172

Lookup result for RRIRVRPPRLPRPRPRPATHPRP ; measured shrunken log2 fold change: -0.0884

Lookup result for RRIRCRPPRLPRPRPRPPPVPRP ; measured shrunken log2 fold change: 1.24

Lookup result for RRIRQRPPRLPRPRPRPKIYPRP ; measured shrunken log2 fold change: -0.277

Lookup result for RRIRCRPPRLPRPRPRPGRCPRP ; measured shrunken log2 fold change: 0.436

Lookup result for RRIRQRPPRLPRPRPRPYNCPRP ; measured shrunken log2 fold change: -0.92

* * *

- Test system: Escherichia coli TOP10
- test.details: shrunken log2 fold change of peptide-encoding DNA abundance (4.5 h post-induction vs induction); higher = less antimicrobial activity (less host growth inhibition)
- cond: time post-induction: 4.5 h; library: site-saturation at positions 5, 18, 19, 20
outcome.measure: shrunken log2 fold change
Field format: numeric only.

GET /values?item= RRIRMRPPRLPRPRPRPTIVPRP &system= Escherichia coli TOP10 returns shrunken log2 fold change: -0.0671

GET /values?item= RRIRTRPPRLPRPRPRPDHCPRP &system= Escherichia coli TOP10 returns shrunken log2 fold change: -0.116

GET /values?item= RRIRIRPPRLPRPRPRPANAPRP &system= Escherichia coli TOP10 returns shrunken log2 fold change: -0.319

GET /values?item= RRIRERPPRLPRPRPRPVMQPRP &system= Escherichia coli TOP10 returns shrunken log2 fold change: 0.095

GET /values?item= RRIRHRPPRLPRPRPRPHMFPRP &system= Escherichia coli TOP10 returns shrunken log2 fold change: -0.358

GET /values?item= RRIRERPPRLPRPRPRPNAPPRP &system= Escherichia coli TOP10 returns shrunken log2 fold change: 0.0774

GET /values?item= RRIRIRPPRLPRPRPRPFPIPRP &system= Escherichia coli TOP10 returns shrunken log2 fold change: 0.0234

GET /values?item= RRIRFRPPRLPRPRPRPEKGPRP &system= Escherichia coli TOP10 returns shrunken log2 fold change: 0.0184

GET /values?item= RRIRMRPPRLPRPRPRPMYFPRP &system= Escherichia coli TOP10 returns shrunken log2 fold change: 0.178

GET /values?item= RRIRRRPPRLPRPRPRPIQKPRP &system= Escherichia coli TOP10 returns shrunken log2 fold change: -0.218

GET /values?item= RRIRVRPPRLPRPRPRPMWWPRP &system= Escherichia coli TOP10 returns shrunken log2 fold change: -0.0322

GET /values?item= RRIRYRPPRLPRPRPRPAFHPRP &system= Escherichia coli TOP10 returns shrunken log2 fold change: -0.518

GET /values?item= RRIRARPPRLPRPRPRPRVSPRP &system= Escherichia coli TOP10 returns shrunken log2 fold change: 0.492

GET /values?item= RRIRCRPPRLPRPRPRPVMKPRP &system= Escherichia coli TOP10 returns shrunken log2 fold change: -0.342

GET /values?item= RRIRNRPPRLPRPRPRPVVRPRP &system= Escherichia coli TOP10 returns shrunken log2 fold change: 0.12

GET /values?item= RRIRKRPPRLPRPRPRPLDMPRP &system= Escherichia coli TOP10 returns shrunken log2 fold change: 0.0395

GET /values?item= RRIRNRPPRLPRPRPRPQFFPRP &system= Escherichia coli TOP10 returns shrunken log2 fold change: -0.0257

GET /values?item= RRIRRRPPRLPRPRPRPGCEPRP &system= Escherichia coli TOP10 returns shrunken log2 fold change: 0.354

GET /values?item= RRIRNRPPRLPRPRPRPTTNPRP &system= Escherichia coli TOP10 returns shrunken log2 fold change: 0.365

GET /values?item= RRIRSRPPRLPRPRPRPGNTPRP &system= Escherichia coli TOP10 returns shrunken log2 fold change: -0.472

GET /values?item= RRIRFRPPRLPRPRPRPTLAPRP &system= Escherichia coli TOP10 returns shrunken log2 fold change: 0.361

GET /values?item= RRIRNRPPRLPRPRPRPTYMPRP &system= Escherichia coli TOP10 returns shrunken log2 fold change: -0.596

GET /values?item= RRIRDRPPRLPRPRPRPESYPRP &system= Escherichia coli TOP10 returns shrunken log2 fold change: 0.0185

GET /values?item= RRIRMRPPRLPRPRPRPILGPRP &system= Escherichia coli TOP10 returns shrunken log2 fold change: -0.00884

GET /values?item= RRIRHRPPRLPRPRPRPAMHPRP &system= Escherichia coli TOP10 returns shrunken log2 fold change: 0.0521

GET /values?item= RRIRCRPPRLPRPRPRPICSPRP &system= Escherichia coli TOP10 returns shrunken log2 fold change: 0.0973

GET /values?item= RRIRLRPPRLPRPRPRPSKQPRP &system= Escherichia coli TOP10 returns shrunken log2 fold change: -0.572

GET /values?item= RRIRSRPPRLPRPRPRPCDRPRP &system= Escherichia coli TOP10 returns shrunken log2 fold change: -0.00911

GET /values?item= RRIRCRPPRLPRPRPRPRVTPRP &system= Escherichia coli TOP10 returns shrunken log2 fold change: 0.23

GET /values?item= RRIRPRPPRLPRPRPRPDPFPRP &system= Escherichia coli TOP10 returns shrunken log2 fold change: -0.0897

GET /values?item= RRIRGRPPRLPRPRPRPLWVPRP &system= Escherichia coli TOP10 returns shrunken log2 fold change: 0.472

GET /values?item= RRIRTRPPRLPRPRPRPTMQPRP &system= Escherichia coli TOP10 returns shrunken log2 fold change: 0.0459

* * *

Task for the reader: assign each of the following sequences its reported shrunken log2 fold change.
- System: Escherichia coli TOP10;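 also: peptides expressed intracellularly from a pBAD plasmid library in pooled LB shake-flask culture, induced with 0.3% L-arabinose, DNA abundance read by NGS, three biological replicates, DESeq2 with apeglm shrinkage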
- test.details: shrunken log2 fold change of peptide-encoding DNA abundance (4.5 h post-induction vs induction); higher = less antimicrobial activity (less host growth inhibition)
- cond: time post-induction: 4.5 h; library: site-saturation at positions 5, 18, 19, 20
Field format: numeric only.

Lookup result for RRIRGRPPRLPRPRPRPHDAPRP ; measured shrunken log2 fold change: 0.00554

Lookup result for RRIRDRPPRLPRPRPRPSHWPRP ; measured shrunken log2 fold change: -0.178

Lookup result for RRIRHRPPRLPRPRPRPNDWPRP ; measured shrunken log2 fold change: 0.339

Lookup result for RRIRQRPPRLPRPRPRPFDQPRP ; measured shrunken log2 fold change: -0.0498

Lookup result for RRIRIRPPRLPRPRPRPGDGPRP ; measured shrunken log2 fold change: 0.281

Lookup result for RRIRERPPRLPRPRPRPPVCPRP ; measured shrunken log2 fold change: -0.119

Lookup result for RRIRRRPPRLPRPRPRPFQRPRP ; measured shrunken log2 fold change: 0.608

Lookup result for RRIRMRPPRLPRPRPRPDQNPRP ; measured shrunken log2 fold change: 0.405

Lookup result for RRIRGRPPRLPRPRPRPWFSPRP ; measured shrunken log2 fold change: -0.246

Lookup result for RRIRARPPRLPRPRPRPSVCPRP ; measured shrunken log2 fold change: 0.348

Lookup result for RRIRWRPPRLPRPRPRPDMHPRP ; measured shrunken log2 fold change: 0.199

Lookup result for RRIRGRPPRLPRPRPRPRYHPRP ; measured shrunken log2 fold change: -0.0711

Lookup result for RRIRNRPPRLPRPRPRPNCAPRP ; measured shrunken log2 fold change: -0.123

Lookup result for RRIRMRPPRLPRPRPRPRIFPRP ; measured shrunken log2 fold change: 0.011

Lookup result for RRIRRRPPRLPRPRPRPVRSPRP ; measured shrunken log2 fold change: 0.551

Lookup result for RRIRQRPPRLPRPRPRPFQSPRP ; measured shrunken log2 fold change: -0.0102

Lookup result for RRIRTRPPRLPRPRPRPHMYPRP ; measured shrunken log2 fold change: -0.275

Lookup result for RRIRMRPPRLPRPRPRPSIEPRP ; measured shrunken log2 fold change: 0.0914

Lookup result for RRIRMRPPRLPRPRPRPRIAPRP ; measured shrunken log2 fold change: 0.786

Lookup result for RRIRQRPPRLPRPRPRPHPLPRP ; measured shrunken log2 fold change: -0.0478

Lookup result for RRIRERPPRLPRPRPRPKCGPRP ; measured shrunken log2 fold change: 0.0971

Lookup result for RRIRERPPRLPRPRPRPGMCPRP ; measured shrunken log2 fold change: 0.248

Lookup result for RRIRFRPPRLPRPRPRPWEEPRP ; measured shrunken log2 fold change: -0.159

Lookup result for RRIRRRPPRLPRPRPRPEVPPRP ; measured shrunken log2 fold change: 0.0172

Lookup result for RRIRTRPPRLPRPRPRPSITPRP ; measured shrunken log2 fold change: -0.484

Lookup result for RRIRERPPRLPRPRPRPAAPPRP ; measured shrunken log2 fold change: 0.504

Lookup result for RRIRDRPPRLPRPRPRPDQHPRP ; measured shrunken log2 fold change: 0.132

Lookup result for RRIRWRPPRLPRPRPRPFSSPRP ; measured shrunken log2 fold change: -0.374

Lookup result for RRIRKRPPRLPRPRPRPHPPPRP ; measured shrunken log2 fold change: 1.27

Lookup result for RRIRGRPPRLPRPRPRPCCLPRP ; measured shrunken log2 fold change: 0.429

Lookup result for RRIRARPPRLPRPRPRPEYIPRP ; measured shrunken log2 fold change: 0.0332

Lookup result for RRIRTRPPRLPRPRPRPVPLPRP ; measured shrunken log2 fold change: -0.145
